Reference source for all entries: ChEMBL document CHEMBL1155238

assay: Cytotoxicity against mouse J774 cells assessed as cell viability at 150 ug/ml after 48 hrs by MTT assay; type: cell-based; details: read-out: Activity
PROPERTY: viability at 48 h, 150 ug/ml (%)
# value in %; strip the unit string

Exercise: Fill blank: measured viability at 48 h, 150 ug/ml of the molecule O=C(N/N=C/c1cccc(Br)c1)c1cnccn1 is ____.
Solution: 93

Exercise: Fill blank: measured viability at 48 h, 150 ug/ml of the molecule O=C(N/N=C/c1cccc(O)c1)c1cnccn1 is ____.
Solution: 88

Exercise: Fill blank: measured viability at 48 h, 150 ug/ml of the molecule O=C(N/N=C/c1ccccc1[N+](=O)[O-])c1cnccn1 is ____.
Solution: 46

Exercise: Fill blank: measured viability at 48 h, 150 ug/ml of the molecule O=C(N/N=C/c1ccccc1Br)c1cnccn1 is ____.
Solution: 91

Exercise: Fill blank: measured viability at 48 h, 150 ug/ml of the molecule O=C(N/N=C/c1ccc(Br)cc1)c1cnccn1 is ____.
Solution: 94

---

experiment: Cytotoxicity against mouse J774 cells assessed as cell viability at 150 ug/ml after 48 hrs by MTT assay; type: cell-based; settings: read-out: Activity
PROPERTY: viability at 48 h, 150 ug/ml (%)
# value in %; strip the unit string

As a guide, the following entries are already answered.
[[record]]
compound = "CCOc1cccc(/C=N/NC(=O)c2cnccn2)c1"
property = "viability at 48 h, 150 ug/ml"
display_unit = "%"
recorded_number = 69

[[record]]
compound = "COc1ccc(/C=N/NC(=O)c2cnccn2)cc1"
property = "viability at 48 h, 150 ug/ml"
display_unit = "%"
recorded_number = 55

[[record]]
compound = "O=C(N/N=C/c1cccc(Cl)c1)c1cnccn1"
property = "viability at 48 h, 150 ug/ml"
display_unit = "%"
recorded_number = 100

[[record]]
compound = "O=C(N/N=C/c1ccccc1Cl)c1cnccn1"
property = "viability at 48 h, 150 ug/ml"
display_unit = "%"
recorded_number = 69

[[record]]
compound = "O=C(N/N=C/c1ccc([N+](=O)[O-])cc1)c1cnccn1"
property = "viability at 48 h, 150 ug/ml"
display_unit = "%"
recorded_number = 44


Exercise: Fill blank: measured viability at 48 h, 150 ug/ml of the compound CCN(CC)c1ccc(/C=N/NC(=O)c2cnccn2)cc1 is ____.
Solution: 93

Exercise: Fill blank: measured viability at 48 h, 150 ug/ml of the compound N#Cc1cccc(/C=N/NC(=O)c2cnccn2)c1 is ____.
Solution: 100

Exercise: Fill blank: measured viability at 48 h, 150 ug/ml of the compound O=C(N/N=C/c1ccccc1F)c1cnccn1 is ____.
Solution: 81

Exercise: Fill blank: measured viability at 48 h, 150 ug/ml of the compound NC(=O)c1cnccn1 [PYRAZINAMIDE] is ____.
Solution: 100

Exercise: Fill blank: measured viability at 48 h, 150 ug/ml of the compound COc1ccccc1/C=N/NC(=O)c1cnccn1 is ____.
Solution: 97

Exercise: Fill blank: measured viability at 48 h, 150 ug/ml of the compound N#Cc1ccccc1/C=N/NC(=O)c1cnccn1 is ____.
Solution: 70

Exercise: Fill blank: measured viability at 48 h, 150 ug/ml of the compound O=C(N/N=C/c1ccc(Cl)cc1)c1cnccn1 is ____.
Solution: 56

Exercise: Fill blank: measured viability at 48 h, 150 ug/ml of the compound O=C(N/N=C/c1ccccc1)c1cnccn1 is ____.
Solution: 100

Exercise: Fill blank: measured viability at 48 h, 150 ug/ml of the compound O=C(N/N=C/c1ccc(O)cc1)c1cnccn1 is ____.
Solution: 80
